# ASSAY_TARGET: IRAK4 (Homo sapiens, UniProt Q9NWZ3)
# Sequence (Q9NWZ3 1-460): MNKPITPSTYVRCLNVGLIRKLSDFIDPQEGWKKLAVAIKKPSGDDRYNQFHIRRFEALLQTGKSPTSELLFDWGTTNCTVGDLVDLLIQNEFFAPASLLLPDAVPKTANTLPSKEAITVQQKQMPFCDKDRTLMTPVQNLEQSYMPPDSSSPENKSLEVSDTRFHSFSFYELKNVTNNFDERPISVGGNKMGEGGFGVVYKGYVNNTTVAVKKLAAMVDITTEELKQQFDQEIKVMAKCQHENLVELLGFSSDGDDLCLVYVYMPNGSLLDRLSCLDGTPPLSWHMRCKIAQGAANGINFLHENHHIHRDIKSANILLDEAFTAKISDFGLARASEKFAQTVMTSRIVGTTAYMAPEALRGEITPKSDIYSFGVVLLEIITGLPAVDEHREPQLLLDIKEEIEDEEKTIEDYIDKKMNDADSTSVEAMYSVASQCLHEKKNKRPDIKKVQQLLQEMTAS
# ASSAY_REMARKS: biochemical
pIC50: −log10 of the molar value.
We use 8 as the dividing line for pIC50: on or above the line is Satisfied, below is Not satisfied.

Please review the entries below; each comes with its answer.
COMPOUND | CATEGORY
COc1cc2nc(C3CCOCC3)cn2cc1C(=O)Nc1ccccn1 | Not satisfied
CC12CC(c3cn4cc(C(=O)Nc5cccc(C(F)F)n5)ncc4n3)(CO1)C2 | Not satisfied
CC(C)Oc1cc2nc(C34CCC(C)(C3)OC4)cn2cc1C(=O)Nc1ccn(C)n1 (stereo not shown) | Satisfied
CC12CCC(c3cn4cc(C(=O)Nc5ccn(CC(F)F)n5)c(OC5CCC5)cc4n3)(CO1)C2 (stereo not shown) | Satisfied
CCOc1nc(C(=O)Nc2cccnc2OC)cn2cc([C@@H]3CCOC3)nc12 (single isomer, unassigned) | Satisfied

Task item: Evaluate CCOc1nc(C(=O)Nc2cccnc2OC(C)C)cn2cc(C34COC(C)(C3)C4)nc12 : pIC50 at minimum 8?
Reply: Satisfied

Task item: Entry CC(C)Oc1cc2nc([C@]34CC[C@](C)(C3)OC4)cn2cc1C(=O)Nc1cc(F)n(C)n1 (single isomer, unassigned) : is its pIC50 no less than 8?
Reply: Satisfied

Task item: Check this compound for pIC50 at or above 8: COc1c(C(=O)Nc2cccc(C(F)F)n2)cn2cc(C34COC(C)(C3)C4)nc2c1C
Reply: Not satisfied

Task item: Is it the case that CC(C)Oc1nc2nc(C34COC(C)(C3)C4)cn2cc1C(=O)Nc1cccc(-c2cnco2)n1 has pIC50 reaching or exceeding 8?
Reply: Satisfied

Task item: Is it the case that CC(C)Oc1cc2nc(C34CCC(C)(C3)OC4)cn2cc1C(=O)Nc1nc(C(F)(F)F)cs1 (stereo not shown) has pIC50 reaching or exceeding 8?
Reply: Satisfied

Task item: In plain terms: is recorded pIC50 at least 8 for CCC(C)Oc1nc2nc(C34COC(CF)(C3)C4)cn2cc1C(=O)Nc1cnn2cc(C)cnc12 (single isomer, unassigned) [Example 644] ?
Reply: Satisfied

Task item: Entry CCn1ccc(NC(=O)c2cn3cc(C45CCC(C)(C4)OC5)nc3cc2OC(C)C)n1 (stereo not shown) : is its pIC50 no less than 8?
Reply: Satisfied

Task item: Textbook exercise: given the entry CCOc1nc(C(=O)Nc2cccc3ccnn23)cn2cc(C34COC(C)(C3)C4)nc12 , state whether its pIC50 is greater than or equal to 8.
Reply: Satisfied
